test system: SlCAT2; experiment: [3H]Arg uptake in proteoliposomes reconstituted with recombinant SlCAT2; format: biochemical, S. lycopersicum; details: cation in internal compartment at about vacuolar concentration, 15 mM ATP, pH 7.5, 20 min; K+ and Na+ versus no osmolytes, extent equal to isoosmolar sucrose (osmotic effect)
readout label: effect of intraliposomal cations on [3H]Arg uptake

>  <structure smiles>
[K+]

>  <reported result>
activation

$$$$
>  <structure smiles>
[Cl-].[Na+]

>  <reported result>
activation

$$$$

----------
test system: SlCAT2; experiment: [3H]Arg uptake in proteoliposomes reconstituted with recombinant SlCAT2; type: biochemical, S. lycopersicum; settings: Mg2+ in internal compartment, with 200 mM sucrose and 15 mM intraliposomal ATP, pH 7.5, 20 min; read-out: IC50 for inhibition of [3H]Arg uptake by intraliposomal Mg2+
readout label: IC50 (mM)
Report as a plain number; the unit mM is understood.

Q: Which IC50 value is on record for [Cl-].[Cl-].[Mg+2] ?
A: 23
